Examples of molecules with documented pIC50 follow.
TESTED TARGET: rhCRTh2 (Homo sapiens, UniProt Q9Y5Y4)
Construct: expressed in transfected cells; host or cells: HEK cells (membrane preparation)
Sequence (Q9Y5Y4 whole entry): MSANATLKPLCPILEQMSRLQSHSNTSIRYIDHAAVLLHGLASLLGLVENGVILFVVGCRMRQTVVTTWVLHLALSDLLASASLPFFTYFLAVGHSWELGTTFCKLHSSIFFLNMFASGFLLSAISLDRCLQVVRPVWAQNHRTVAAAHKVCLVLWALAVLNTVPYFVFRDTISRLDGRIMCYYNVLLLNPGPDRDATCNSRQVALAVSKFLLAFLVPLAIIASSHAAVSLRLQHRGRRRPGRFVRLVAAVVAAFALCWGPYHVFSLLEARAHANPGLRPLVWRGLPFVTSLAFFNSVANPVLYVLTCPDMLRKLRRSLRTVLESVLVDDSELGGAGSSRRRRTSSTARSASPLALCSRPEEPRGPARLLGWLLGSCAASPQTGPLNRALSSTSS
PROCEDURE TEXT: Ligand Binding Assay ([3H]PGD2 SPA, HEK cell membranes)
MEASUREMENT PARAMETERS: [3H]PGD2 displacement, HEK membranes expressing rhCRTh2/Gα16, SPA beads, 2 hours room temperature
Structures can show the parent of a compound that is named as a salt.
A value of pIC50 is the negative decimal logarithm of a concentration given in moles per litre.

Cc1c(-c2nsc3ccccc23)c2cc(F)ccc2n1CC(=O)O [Example 36]
8.15

Proceeding to the next molecule to report its pIC50.
Q: I would be grateful if you could share the reported pIC50 for Cc1ccc2c(c1)c(-c1ccnc3ccccc13)c(C)n2CC(=O)O [Example 14, sodium salt] .
Result: 7.70
